target: Aurora kinase B (Homo sapiens); type: functional
Sequence (Q96GD4 whole entry): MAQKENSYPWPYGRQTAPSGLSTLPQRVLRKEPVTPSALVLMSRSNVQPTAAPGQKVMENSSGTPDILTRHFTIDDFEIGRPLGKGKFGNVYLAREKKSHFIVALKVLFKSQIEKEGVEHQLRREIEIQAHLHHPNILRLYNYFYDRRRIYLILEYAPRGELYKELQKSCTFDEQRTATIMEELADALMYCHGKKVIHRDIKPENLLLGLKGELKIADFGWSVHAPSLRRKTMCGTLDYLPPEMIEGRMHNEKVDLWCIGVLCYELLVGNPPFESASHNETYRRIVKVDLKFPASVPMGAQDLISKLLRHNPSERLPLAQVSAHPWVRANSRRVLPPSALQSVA
Calls of active or inactive are those of the source.
Respond only with the outcome that fits, drawn from yes (1) for active, no (0) for inactive

Call for entry COc1ccc(Nc2nccc(Nc3ccccc3C(=O)O)n2)cc1O : yes (1)

Call for entry COc1ccc(C2=NNc3cccc4c(OC)ccc2c34)cc1OC : no (0)

Call for entry CN1CCC(c2c(O)cc(O)c3c(=O)cc(-c4ccccc4Cl)oc23)C(O)C1 (centres undefined) : no (0)

Call for entry Cc1ccc(C)c(NC(=O)c2cc(-c3ccco3)nc3ccccc23)c1 : yes (1)

---

Exercise: for every item that follows, state its recorded CC50.
assay: viability of uninfected HEp-2 cells – cell-based, HTS, cytotoxicity control for RSV inhibitor project, dose response (AID 2410); format: functional; conditions: human respiratory syncytial virus
Activity calls are given as the source filed them.

// worked examples, CC50 included
compound=Cc1cccc(NS(=O)(=O)c2ccc(C)c(C(=O)OCC(=O)Nc3cc(C)on3)c2)c1 measured_quantity=CC50 experimental_value="23.9 µM (active)"
compound=O=C(COc1ccc2ccccc2c1)N1c2ccccc2Sc2ccccc21 measured_quantity=CC50 experimental_value="26.8 µM (active)"
compound=CC(=O)Nc1ccc(S(=O)(=O)Nc2cccc(-c3nc4cc(C)ccc4o3)c2)cc1 measured_quantity=CC50 experimental_value="9.33 µM (active)"
compound="Cc1ccccc1N(C(=O)Cn1nnc(-c2cccs2)n1)C(C(=O)NCCC(C)C)c1ccco1 (configuration not stated)" measured_quantity=CC50 experimental_value="40.4 µM (active)"

Batch request: CC50 for each of the following compounds.
1. CCOC(=O)Cn1c(-c2nonc2NC(=O)c2ccccc2F)nc2ccccc21
2. O=[N+]([O-])c1ccc(N2CCCC2)c2ncccc12

1. > 6.25 µM (active)
2. > 50 µM (active)

Would you kindly share the measured CC50 for CC(C)(C)Nc1nc(-c2ccc3c(c2)CCN3C(=O)C2CC2)cs1 ? 25.2 µM (active)

---

experiment: Luminescence Cell-Based Dose Confirmation HTS to Identify Inhibitors of Platelet Dense Granule Release. [Related pubchem assays: 1663 (Primary HTS), 1678 (Summary of Project)]; assay type: functional
Calls of active or inactive are those of the source.
Exercise: for every item that follows, state its recorded EC50.

// worked examples, EC50 included
given_smiles=CCOc1ccc2nc(NC(=O)c3ccc(C)o3)sc2c1 measured_quantity=EC50 experimental_value="5.87 µM (active)"
given_smiles=Nc1ccc(-c2nc3ccc(N)cc3s2)cc1 measured_quantity=EC50 experimental_value="17.5 µM (active)"
given_smiles=Cc1ccc(C(=O)NCCn2cc(SCC(=O)Nc3nnc(C)s3)c3ccccc32)cc1 measured_quantity=EC50 experimental_value="> 112 µM (not active)"

Next up:
Would you kindly share the measured EC50 for CCc1ccc(S(=O)(=O)N/N=C\c2ccc([N+](=O)[O-])o2)cc1 ? 2.02 µM (active)

---

Exercise: for every item that follows, state its recorded EC50.
molecular target: UniProtKB P10520; assay: viability-normalized secreted streptokinase activity reduction – plasminogen activation absorbance, OD405, dose response (AID 1914); assay type: functional, Streptococcus pyogenes M1 GAS;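 also: secreted streptokinase activity via plasminogen activation per viability signal from cell pellet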
Sequence (P10520 whole entry): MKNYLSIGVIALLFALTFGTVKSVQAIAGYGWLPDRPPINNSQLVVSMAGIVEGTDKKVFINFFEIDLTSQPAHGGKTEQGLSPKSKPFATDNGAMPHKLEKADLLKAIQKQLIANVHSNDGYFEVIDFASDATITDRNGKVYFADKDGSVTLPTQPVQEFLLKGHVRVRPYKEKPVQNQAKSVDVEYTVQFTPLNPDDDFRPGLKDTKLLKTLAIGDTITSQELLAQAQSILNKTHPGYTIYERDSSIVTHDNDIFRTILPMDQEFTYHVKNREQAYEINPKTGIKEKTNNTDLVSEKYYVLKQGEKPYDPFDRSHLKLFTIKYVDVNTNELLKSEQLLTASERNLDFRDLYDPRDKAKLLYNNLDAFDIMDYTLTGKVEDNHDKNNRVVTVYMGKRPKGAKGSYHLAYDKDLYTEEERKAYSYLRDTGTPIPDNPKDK
Counter-ions that a name gives are not always drawn. Active and inactive are the calls of the source.

compound=O=C(O)c1cnc(-c2ccccc2)nc1Sc1ccc(Cl)cc1Cl measured_quantity=EC50 experimental_value="18.8 µM (active)"
compound=N=C1/C(=C/c2cccs2)C(=O)N=C2SN=C(SCc3ccccc3)N12 measured_quantity=EC50 experimental_value="5.78 µM (active)"
compound=COc1ccccc1NC(=O)C(=O)NNC(=O)COc1ccc2ccccc2c1 measured_quantity=EC50 experimental_value="> 150 µM (not active)"
compound="N=c1ccn2c(n1)O[C@H]1[C@H](O)[C@@H](CO)O[C@H]12 [ANCITABINE HYDROCHLORIDE]" measured_quantity=EC50 experimental_value="> 150 µM (not active)"
compound="CCc1nc(SCC(=O)N2c3ccccc3CC2C)c2c(C)c(C)sc2n1 (stereo not given)" measured_quantity=EC50 experimental_value="57.8 µM (active)"
compound=CC1CCN(C(=O)c2ccc3c(c2)NC(=O)/C(=C/c2ccccc2)S3)CC1 measured_quantity=EC50 experimental_value="> 150 µM (not active)"

Batch request: EC50 for each of the following compounds.
1. Cc1ccc(OCc2ccc(C(=O)Nc3c(C)nn(Cc4c(F)c(F)c(F)c(F)c4F)c3C)o2)c([N+](=O)[O-])c1
2. CC(=O)Oc1ccccc1C1=NN(C(=O)/C=C/c2ccccc2)C(c2ccccc2)C1 (stereo not given)
3. CC(/C=C1\SC(=S)N(NS(=O)(=O)c2ccc(C)cc2)C1=O)=C\c1ccccc1
4. c1ccc(Oc2nc(-c3ccccn3)nc3ccccc23)cc1

1: 25.6 µM (inconclusive); 2: > 150 µM (not active); 3: > 150 µM (not active); 4: > 150 µM (not active)

Where these numbers come from: ChEMBL document CHEMBL1201862
